Assay: O-1602 release of O-1602 derivatives under different pH conditions (HPLC area percentage)
Assay type: physicochemical
Conditions: pH 1.6~8.0, 37° C., 2 hours and 4 hours
experimental_endpoint: release amount of O-1602 (in words)

Consider the worked cases shown below.
Lookup: Looking for the measured release amount of O-1602 (in words) of C=C(C)[C@@H]1CCC(C)=C[C@H]1c1c(C)cc(OC(=O)NCCN2CCN(C)CC2)cc1OC(=O)NCCN1CCN(C)CC1 , can you help?
Found: small amount

Lookup: Looking for the measured release amount of O-1602 (in words) of C=C(C)[C@@H]1CCC(C)=C[C@H]1c1c(C)cc(OC(=O)C(N)C(C)C)cc1OC(=O)C(N)C(C)C (stereo partly shown) , can you help?
Found: relatively high

Lookup: Looking for the measured release amount of O-1602 (in words) of C=C(C)[C@@H]1CCC(C)=C[C@H]1c1c(C)cc(OC(=O)N(C)C)cc1OC(=O)N(C)C , can you help?
Found: no O-1602 was released

Lookup: Looking for the measured release amount of O-1602 (in words) of C=C(C)[C@@H]1CCC(C)=C[C@H]1c1c(C)cc(OC(=O)NCCCCN)cc1O , can you help?
Found: small amount

Lookup: Looking for the measured release amount of O-1602 (in words) of C=C(C)[C@@H]1CCC(C)=C[C@H]1c1c(C)cc(OC(C)=O)cc1OC(C)=O , can you help?
Found: no O-1602 was released

Lookup: Looking for the measured release amount of O-1602 (in words) of C=C(C)[C@@H]1CCC(C)=C[C@H]1c1c(C)cc(OC(=O)OCCN(CC)CC)cc1OC(=O)OCCN(CC)CC , can you help?
Found: relatively high

Next, consider the following compound.
Lookup: Looking for the measured release amount of O-1602 (in words) of C=C(C)[C@@H]1CCC(C)=C[C@H]1c1c(C)cc(OC(=O)CN(C)C)cc1O , can you help?
Found: small amount

The measured values listed here are drawn from patent US20260193222A1.
